tested on: serum albumin; experiment: Cellulose-immobilized 13-mer peptide variants incubated with serum albumin (negative control), anti-human IgG-AP detection; format: binding; design: key: No binding of immunoglobulin for the defined peptide variant, detection negative: 0; Binding of immunoglobulin for the defined peptide variant, detection positive: +; settings: blocking buffer without addition, 3 h room temperature
Bridge positions count the residues as written; N and C are the ends. Square brackets hold non-standard residues; d marks the D form. Ends that are not written are not given here. cellulose = not defined here; βAla = NCCC(=O)O
measurement-kind: Result for incubation with serum albumin (immunoglobulin binding detection)

10A: cellulose-bound 13-mer variant DCAWHLGELAWCT-(βA)(βA) (DCAWHLGELAWCT-{βAla-βAla-cellulose}; disulfide 2-12 (inferred); reading uncertain; also: printed as DCAWHLGELAWCT-(βA)(βA)) | 0
02A: cellulose-bound 13-mer variant DAAWHLGELVWCT-(βA)(βA) (DAAWHLGELVWCT[βAla][βAla]; not fully specified; printed as DAAWHLGELVWCT-(βA)(βA); also: cellulose-bound) | 0
